- tested_system: human ether-à-go-go-related gene (hERG) potassium channel (human);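 further: peak tail current of the secondary pulse compared with the same well before compound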
- Sequence (Q12809 whole entry, looked up): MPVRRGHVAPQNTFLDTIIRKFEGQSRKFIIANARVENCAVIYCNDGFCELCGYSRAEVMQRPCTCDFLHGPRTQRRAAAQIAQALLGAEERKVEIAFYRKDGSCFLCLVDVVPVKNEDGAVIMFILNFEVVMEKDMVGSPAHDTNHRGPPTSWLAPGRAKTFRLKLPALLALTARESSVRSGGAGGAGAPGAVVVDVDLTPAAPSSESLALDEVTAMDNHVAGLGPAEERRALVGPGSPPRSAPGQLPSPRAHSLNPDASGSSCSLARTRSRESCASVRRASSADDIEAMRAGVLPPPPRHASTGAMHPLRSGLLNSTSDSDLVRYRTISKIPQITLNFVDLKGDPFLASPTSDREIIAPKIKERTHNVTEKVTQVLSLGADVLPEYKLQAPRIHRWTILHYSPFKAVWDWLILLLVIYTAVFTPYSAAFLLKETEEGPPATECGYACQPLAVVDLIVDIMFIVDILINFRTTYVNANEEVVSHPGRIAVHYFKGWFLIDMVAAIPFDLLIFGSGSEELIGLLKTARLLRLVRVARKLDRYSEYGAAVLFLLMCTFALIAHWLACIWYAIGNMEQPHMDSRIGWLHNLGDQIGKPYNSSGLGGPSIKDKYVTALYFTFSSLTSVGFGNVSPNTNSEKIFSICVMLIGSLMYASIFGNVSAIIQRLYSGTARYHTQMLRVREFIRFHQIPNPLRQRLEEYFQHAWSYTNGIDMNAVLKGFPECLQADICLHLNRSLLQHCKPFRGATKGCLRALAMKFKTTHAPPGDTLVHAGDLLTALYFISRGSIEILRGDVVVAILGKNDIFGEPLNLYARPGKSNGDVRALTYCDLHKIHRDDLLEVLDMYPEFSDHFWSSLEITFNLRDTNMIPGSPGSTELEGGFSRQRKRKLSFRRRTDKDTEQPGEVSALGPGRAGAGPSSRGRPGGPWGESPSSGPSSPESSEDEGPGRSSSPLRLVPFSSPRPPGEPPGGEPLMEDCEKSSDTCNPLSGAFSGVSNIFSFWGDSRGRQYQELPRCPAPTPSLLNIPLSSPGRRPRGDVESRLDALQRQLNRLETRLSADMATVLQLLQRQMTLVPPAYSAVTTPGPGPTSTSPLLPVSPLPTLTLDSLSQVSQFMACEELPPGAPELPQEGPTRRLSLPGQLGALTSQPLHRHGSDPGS
- method_description: primary screen, population patch clamp on CHO cells stably expressing hERG; higher = less effect of the substance
The campaign covered roughly 310,000 compounds. About 14,000 (4.5%) showed an effect of 50% or more. Effects have a minus sign here. This is one part of a sample in which strong results are shown more often than they occur.
Classification field. Basis: hERG current change (%, negative = inhibition) at 10uM. Definitions: zone 1 = under -60%, zone 2 = from -60% up to -20%, zone 3 = -20% and over

INSERT INTO measurements (compound, tested_system, qualitative_label) VALUES
  ('Cc1ccc(CNC(=O)C23CN(Cc4ccccc4)CC2C(c2ccc([N+](=O)[O-])cc2)=NO3)o1 (centres unmarked)', 'human ether-à-go-go-related gene (hERG) potassium channel (human)', 'zone 2'),
  ('O=C(NCc1ccco1)C12CN(Cc3ccccc3)CC1C(c1ccc([N+](=O)[O-])cc1)=NO2 (centres unmarked)', 'human ether-à-go-go-related gene (hERG) potassium channel (human)', 'zone 1'),
  ('Nc1c(S(=O)(=O)c2cc(Cl)ccc2Cl)c2nc3ccccc3nc2n1CCN1CCOCC1', 'human ether-à-go-go-related gene (hERG) potassium channel (human)', 'zone 3'),
  ('COc1ccc(CNC(=O)C23CN(Cc4ccccc4)CC2C(c2ccc([N+](=O)[O-])cc2)=NO3)cc1 (centres unmarked)', 'human ether-à-go-go-related gene (hERG) potassium channel (human)', 'zone 2'),
  ('CCCc1ccc(OCC(O)CN2CCN(CCO)CC2)cc1.Cl (centres unmarked)', 'human ether-à-go-go-related gene (hERG) potassium channel (human)', 'zone 3'),
  ('O=C(NCc1ccco1)C12CN(Cc3ccccc3)CC1C(c1cccc([N+](=O)[O-])c1)=NO2 (centres unmarked)', 'human ether-à-go-go-related gene (hERG) potassium channel (human)', 'zone 2'),
  ('COc1cccc(OCC(O)CN2CCc3ccccc3C2)c1.Cl (centres unmarked)', 'human ether-à-go-go-related gene (hERG) potassium channel (human)', 'zone 1'),
  ('COc1cccc(CNC(=O)C23CN(Cc4ccccc4)CC2C(c2ccc([N+](=O)[O-])cc2)=NO3)c1 (centres unmarked)', 'human ether-à-go-go-related gene (hERG) potassium channel (human)', 'zone 2'),
  ('COc1ccc(CCNC(=O)C23CN(Cc4ccccc4)CC2C(c2cccc([N+](=O)[O-])c2)=NO3)cc1 (centres unmarked)', 'human ether-à-go-go-related gene (hERG) potassium channel (human)', 'zone 3'),
  ('O=C(CSc1nc2cc(Cl)ccc2c(=O)n1Cc1ccco1)Nc1ccc(S(=O)(=O)N2CCOCC2)cc1', 'human ether-à-go-go-related gene (hERG) potassium channel (human)', 'zone 3'),
  ('O=C(NCc1ccccc1)C12CN(Cc3ccccc3)CC1C(c1ccc([N+](=O)[O-])cc1)=NO2 (centres unmarked)', 'human ether-à-go-go-related gene (hERG) potassium channel (human)', 'zone 1'),
  ('Oc1ccc(C[C@@H]2CNCCN2CCc2cccc3ccccc23)cc1', 'human ether-à-go-go-related gene (hERG) potassium channel (human)', 'zone 1'),
  ('Cc1c(C)n(C)c2ccc([N+](=O)[O-])cc12', 'human ether-à-go-go-related gene (hERG) potassium channel (human)', 'zone 3'),
  ('CCCc1ccc(OCC(O)CN2CCc3ccccc3C2)cc1.Cl (centres unmarked)', 'human ether-à-go-go-related gene (hERG) potassium channel (human)', 'zone 1');
